- method_notes: yeast display, Sf9 membrane polyspecificity reagent, FACS + sequencing; frameworks hold sequencing errors
measured_attribute: polyreactivity (PSR sort gate)

Worked cases, polyreactivity (PSR sort gate) given:
sequence_data	polyreactivity (PSR sort gate)
QVQLVESGGGLVQAGGSLRLSCAASGFTFSYYAMGWYRQAPGKERELVAVISDRGGITYYADSVKGRFTISRDIAKITVYLQMNSLKPEDTAVYYCAAQNPRYNYRYYYWGQGTQVTVSS	low polyreactivity
QVQLVESGGGLVQAGGSLRLSCAASGFTFGYYAMGWYRQAPGKERELVAAITWNGGSTYYADSVKGRFTISRDYAKNTVYLQMNSLKPEDTAVYYCAAVYKYIQRYDYWGQGTQVTVSS	high polyreactivity
QVQLVESGGGLFQAGGSLRLSCAASGSTFKFNAMGWYRQAPGKEWELVAAISNRGGTTYYADSVKGRFTISRDNAKNTVYLLMNSLKQEDTAVYYCAAGRVQYYYFWGQGTQVTVSS	high polyreactivity
QVQLVESGGGLVQAGGSLRLSCAASGSTFYSNAMGWYRQAPRKERELVASISWSSGSTYYADSVKGRFTISRDNAKNTVYLQMNSLKPEDTAVYYCATDAGGPYRFGYWGQGTQVTVSS	low polyreactivity
QVQLVESGGGIVQAGGSLRLSCAASGITFTVYAMGWYRQAPGKERELVAAITSTGSTNYADSVKGRFTISRDNAKNTVYLQMISLKPEDTAVYYCAADRQITVYAYDYWGHGTQVTVSS	low polyreactivity
QVQLVESGGGLVQAGGSLRLSCAASGSTFTTYAMRWYRQAPGKERELLAAITRGGGRTYYSDSVKGRFTISRDYAKNTVYLLMNSLKPEDTAVYYCNAGRSNSPCGRPYDYWGQGTQVTVSS	high polyreactivity

Inquiry: If you can, please state the reported polyreactivity (PSR sort gate) value of QVQLVESGGGLVQAGGSLRLSCAASGSIFVKNAMGWYRQAPGKERELVAVITIRTATTYYADSVKGRFTISRDNAKNTVYLQMNSLKPEVTAVYYCAAAKRQRGYLQREGNYWGQGTQVTVSS .
Reply text: low polyreactivity

Inquiry: If you can, please state the reported polyreactivity (PSR sort gate) value of QVQLVESGGGLVQAGGSLRLSCAASGRIFRYNAMGGYRQAPGKERELVAAITWRGGSTYYADSVKGRFTISRDNAKNTVYLQMNSLKPEDTAVYYCNKVDSLTFEYDYWGQGTQVTVSS .
Reply text: high polyreactivity

Inquiry: If you can, please state the reported polyreactivity (PSR sort gate) value of QDQLEESGGGLVQAGGSLRLSCAASGNIFPRNAMGWYRQAAGKERELVAAISASGDNTYYADSVKGRFTISRDNAKNTVYLQMNSLKPEDTAVYYCSAGTFYESIQPYESVAYYYWGQGTQVTVSS .
Reply text: low polyreactivity

Inquiry: If you can, please state the reported polyreactivity (PSR sort gate) value of QVQLVESGGGLVQAGGSLRLSCAASGNTFVKYTMGWYRQAPGKERELVAAITWSGGSTSYADSVKGRFTLSRDNAKNTVYLQMNSLKPEDTAVYYCAAAWSHSRWDTHDYWGQGTQVTVSS .
Reply text: low polyreactivity

Inquiry: If you can, please state the reported polyreactivity (PSR sort gate) value of QVQLVESGGGLVQAGGSLRLSCAASGRTFTSYAMGWYRQAPGKERELVAAITRGGRTNYADSVKGRFTISRDNAQNTVYLQMNSLKPEDTAVYYCNADGPGYAAKYYWKYDYWGQVTQVTVSS .
Reply text: low polyreactivity
